The reported measurements were obtained from patent US20180099931A1.

- TGT: F508delCFTR (Homo sapiens, UniProt P13569, DEL508-508)
- Construct: expressed in transfected cells; host or cells: CFBE41o- human lung-derived epithelial cells (CFBE4lo-F508delCFTR-HRP), doxycycline-inducible
- Sequence (P13569 with tags, fused parts or gaps DEL508-508): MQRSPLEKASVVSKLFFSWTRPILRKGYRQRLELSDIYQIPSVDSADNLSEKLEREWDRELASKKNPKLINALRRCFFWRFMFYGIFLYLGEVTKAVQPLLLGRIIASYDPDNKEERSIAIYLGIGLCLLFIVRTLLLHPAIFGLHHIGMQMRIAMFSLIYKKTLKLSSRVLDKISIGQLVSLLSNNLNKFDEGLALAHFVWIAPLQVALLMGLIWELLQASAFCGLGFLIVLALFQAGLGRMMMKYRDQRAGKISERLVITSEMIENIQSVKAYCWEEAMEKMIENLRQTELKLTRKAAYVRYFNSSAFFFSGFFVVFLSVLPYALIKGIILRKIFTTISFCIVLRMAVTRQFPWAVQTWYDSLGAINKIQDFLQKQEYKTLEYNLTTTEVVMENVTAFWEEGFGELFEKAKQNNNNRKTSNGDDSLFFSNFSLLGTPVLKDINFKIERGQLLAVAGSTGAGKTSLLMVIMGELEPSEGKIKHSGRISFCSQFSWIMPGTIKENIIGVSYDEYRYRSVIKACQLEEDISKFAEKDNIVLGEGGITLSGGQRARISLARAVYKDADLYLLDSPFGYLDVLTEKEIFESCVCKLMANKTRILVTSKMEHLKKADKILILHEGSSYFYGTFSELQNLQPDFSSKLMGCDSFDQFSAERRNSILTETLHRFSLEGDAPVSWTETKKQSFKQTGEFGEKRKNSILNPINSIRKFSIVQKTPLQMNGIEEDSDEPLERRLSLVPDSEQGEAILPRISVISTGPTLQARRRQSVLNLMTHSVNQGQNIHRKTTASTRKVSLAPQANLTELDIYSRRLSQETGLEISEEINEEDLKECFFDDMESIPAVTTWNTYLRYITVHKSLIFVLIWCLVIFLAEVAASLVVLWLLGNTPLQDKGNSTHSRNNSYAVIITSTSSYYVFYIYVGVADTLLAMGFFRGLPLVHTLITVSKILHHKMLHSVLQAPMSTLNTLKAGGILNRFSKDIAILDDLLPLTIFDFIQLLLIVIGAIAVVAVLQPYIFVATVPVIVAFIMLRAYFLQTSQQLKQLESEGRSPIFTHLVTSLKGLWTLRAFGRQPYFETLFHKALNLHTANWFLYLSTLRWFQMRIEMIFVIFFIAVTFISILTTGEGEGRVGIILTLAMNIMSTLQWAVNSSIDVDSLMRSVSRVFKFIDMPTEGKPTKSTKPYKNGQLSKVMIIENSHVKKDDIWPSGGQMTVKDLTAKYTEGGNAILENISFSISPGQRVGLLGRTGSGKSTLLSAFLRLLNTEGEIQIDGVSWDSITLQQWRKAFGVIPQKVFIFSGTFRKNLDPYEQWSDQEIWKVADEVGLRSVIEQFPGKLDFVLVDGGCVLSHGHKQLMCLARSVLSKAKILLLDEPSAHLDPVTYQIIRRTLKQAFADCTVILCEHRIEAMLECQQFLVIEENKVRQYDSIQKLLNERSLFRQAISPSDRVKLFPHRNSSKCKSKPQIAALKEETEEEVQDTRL
- EXPERIMENTAL PROTOCOL: Cell Surface Expression-Horse Radish Peroxidase (CSE-HRP) Assay
- Assay type: cell-based
- PROTOCOL CONDITIONS: CSE-HRP; with co-corrector (2 μM of 3-[(2R,4R)-4-({[1-(2,2-difluoro-1,3-benzodioxol-5-yl)cyclopropyl]carbonyl}amino)-7-methoxy-3,4-dihydro-2H-chromen-2-yl]benzoic acid); read-out: EC50 (with co-corrector)
ENDPOINT NAME: EC50

In the examples that follow, each entry is paired with its recorded EC50.
# COMPOUND, MEAS VALUE
measured = [
    ("COc1ccc(C(C)(C)C)cc1CN[C@H]1[C@H](C(C)(C)C)[C@@H](C(=O)O)N(C(=O)C2CCC(C#N)CC2)[C@H]1c1ccccc1 (stereo partly drawn)", "1 to 10 µM"),
    ("COc1ccc(C(C)(C)C)cc1CN[C@@H]1[C@@H](C(C)(C)C)[C@H](C(=O)O)N(C(=O)OC(C)C)[C@@H]1c1ccccc1 (racemic)", "1 to 10 µM"),
]

# next compound below
Sure, the documented EC50 for `COc1cc(C)ccc1CN[C@H]1[C@H](C(C)(C)C)[C@@H](C(=O)O)N(C(=O)C2CCCCC2)[C@H]1c1cccnc1OC` is 1 to 10 µM
